- target.system: UniProt:P30542
- Sequence (whole entry): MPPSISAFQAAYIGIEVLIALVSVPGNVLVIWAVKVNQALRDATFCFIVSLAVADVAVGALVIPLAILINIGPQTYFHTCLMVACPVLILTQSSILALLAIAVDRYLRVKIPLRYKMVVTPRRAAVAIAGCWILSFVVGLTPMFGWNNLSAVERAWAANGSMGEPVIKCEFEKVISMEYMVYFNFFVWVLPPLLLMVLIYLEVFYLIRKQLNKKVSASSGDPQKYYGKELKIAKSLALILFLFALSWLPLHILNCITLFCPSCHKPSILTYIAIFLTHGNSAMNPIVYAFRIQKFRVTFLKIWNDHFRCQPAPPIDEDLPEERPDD
The source made the active and inactive calls.
quantity.name: pKA

Below: 6 compounds and their reported pKA.
OC[C@H]1O[C@@H](n2cnc3c(N[C@@H]4CCC[C@H]4OCc4ccccc4)ncnc32)[C@H](O)[C@@H]1O: 4.9
CCNC(=O)[C@H]1O[C@@H](n2cnc3c(N[C@@H]4CCC[C@H]4O)ncnc32)[C@H](O)[C@@H]1O: 4.8
O[C@@H]1[C@H](O)[C@@H](CSc2ccccc2F)O[C@H]1n1cnc2c(N[C@@H]3CCC[C@H]3O)ncnc21: inactive
OC[C@H]1O[C@@H](n2cnc3c(N[C@@H]4CCC[C@H]4O)ncnc32)[C@H](O)[C@@H]1O: 5.5
CCNC(=O)[C@H]1O[C@@H](n2cnc3c(NC4C5CC6CC(C5)CC4C6)ncnc32)[C@H](O)[C@@H]1O (stereo not given in full): 2.4
CCNC(=O)[C@H]1O[C@@H](n2cnc3c(N4[C@@H]5CCC[C@H]4C[C@H](N(C)C)C5)ncnc32)[C@H](O)[C@@H]1O: inactive

Batch lookup, pKA per entry.
1. CCNC(=O)[C@H]1O[C@@H](n2cnc3c(N[C@H]4C[C@H]5CCC[C@@H](C4)N5C)ncnc32)[C@H](O)[C@@H]1O
2. O[C@@H]1[C@H](O)[C@@H](CSc2ccccc2F)O[C@H]1n1cnc2c(N[C@@H]3CCC[C@H]3OCc3ccccc3)ncnc21
3. OC[C@H]1O[C@@H](n2cnc3c(NC45CC6CC(CC(C6)C4)C5)ncnc32)[C@H](O)[C@@H]1O
4. CCNC(=O)[C@H]1O[C@@H](n2cnc3c(NC45CC6CC(CC(C6)C4)C5)ncnc32)[C@H](O)[C@@H]1O

["inactive", "inactive", 3, 4.2]

Batch lookup, pKA per entry.
1. CN1[C@@H]2CCC[C@H]1C[C@@H](Nc1ncnc3c1ncn3[C@@H]1O[C@H](CO)[C@@H](O)[C@H]1O)C2
2. CCNC(=O)[C@H]1O[C@@H](n2cnc3c(NC45CC6CC(CC(O)(C6)C4)C5)ncnc32)[C@H](O)[C@@H]1O
3. CCNC(=O)[C@H]1O[C@@H](n2cnc3c(N)nc(NCCc4ccc(CCC(=O)O)cc4)nc32)[C@H](O)[C@@H]1O

1. inactive
2. 3.5
3. 2.1

Batch lookup, pKA per entry.
1. O[C@@H]1[C@H](O)[C@@H](CSc2ccccc2F)O[C@H]1n1cnc2c(NC34CC5CC(CC(C5)C3)C4)ncnc21
2. CN1[C@@H]2CCC[C@H]1C[C@@H](Nc1ncnc3c1ncn3[C@@H]1O[C@H](CSc3ccccc3F)[C@@H](O)[C@H]1O)C2

inactive
inactive

----------
- target.system: Adenosine receptor A2a (Homo sapiens)
- Sequence (P29274 whole entry): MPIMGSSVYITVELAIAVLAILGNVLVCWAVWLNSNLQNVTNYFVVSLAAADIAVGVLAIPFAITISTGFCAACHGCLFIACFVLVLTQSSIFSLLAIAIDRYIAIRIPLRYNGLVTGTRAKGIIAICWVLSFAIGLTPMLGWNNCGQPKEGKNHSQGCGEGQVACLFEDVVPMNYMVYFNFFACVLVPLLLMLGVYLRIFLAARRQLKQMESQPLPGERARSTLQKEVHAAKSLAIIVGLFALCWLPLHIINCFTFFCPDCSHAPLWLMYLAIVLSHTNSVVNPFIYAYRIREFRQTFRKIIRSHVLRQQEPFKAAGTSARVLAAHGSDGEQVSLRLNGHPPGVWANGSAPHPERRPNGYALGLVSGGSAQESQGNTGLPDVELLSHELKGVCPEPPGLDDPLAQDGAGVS
- assay.method.text: Agonist activity at human Adenosine A2A receptor expressed in yeast cells coexpressed with chimeric GPA1/Galphas after 16 hrs by beta-galactosidase reporter gene assay
quantity.name: EC50 (µM)
Give bare numbers, in µM.

CCNC(=O)[C@H]1O[C@@H](n2cnc3c(N[C@@H]4CCC[C@H]4O)ncnc32)[C@H](O)[C@@H]1O: 5.75

Pending compound:
Item CCNC(=O)[C@H]1O[C@@H](n2cnc3c(N[C@@H]4CCC[C@H]4OCc4ccccc4)ncnc32)[C@H](O)[C@@H]1O with Adenosine receptor A2a (Homo sapiens) - EC50?
15.8

----------
Each entry below carries its measured log(activity), system: Adenosine receptor A1 (Homo sapiens) (UniProt P30542).
Numbers only.

CCNC(=O)[C@H]1O[C@@H](n2cnc3c(N[C@@H]4CCC[C@H]4OCc4ccccc4)ncnc32)[C@H](O)[C@@H]1O: 1.6
OC[C@H]1O[C@@H](n2cnc3c(NC4CCCC4)nc(Cl)nc32)[C@H](O)[C@@H]1O: 0.6

Batch lookup, log(activity) per entry.
1. OC[C@H]1O[C@@H](n2cnc3c(NC45CC6CC(CC(C6)C4)C5)ncnc32)[C@H](O)[C@@H]1O
2. CCNC(=O)[C@H]1O[C@@H](n2cnc3c(N[C@@H]4CCC[C@H]4O)ncnc32)[C@H](O)[C@@H]1O

1: 1.8; 2: 1.6

----------
- target.system: Adenosine receptor A1 (Homo sapiens)
- assay.method.text: Agonist activity at human Adenosine A1 receptor transfected in CHO-K1 cells assessed as inhibition of forskolin-stimulated cAMP production after 30 mins by multimode microplate reader analysis
Give measured pIC50 for each item. Keep answers brief.
Give bare numbers, as −log10 of the molar value.

Below: 3 compounds and their reported pIC50.
OC[C@H]1O[C@@H](n2cnc3c(N[C@@H]4CCC[C@H]4O)ncnc32)[C@H](O)[C@@H]1O: 8.36
CCNC(=O)[C@H]1O[C@@H](n2cnc3c(N[C@@H]4CCC[C@H]4OCc4ccccc4)ncnc32)[C@H](O)[C@@H]1O: 10.53
CCNC(=O)[C@H]1O[C@@H](n2cnc3c(NC4C5CC6CC(C5)CC4C6)ncnc32)[C@H](O)[C@@H]1O (some centres undefined): 9.40

Pending compound:
For the compound CCNC(=O)[C@H]1O[C@@H](n2cnc3c(N[C@@H]4CCC[C@H]4O)ncnc32)[C@H](O)[C@@H]1O , what pIC50 is on record?
8.21

----------
Each entry below carries its measured pKA, system: Adenosine receptor A1 (Homo sapiens) (UniProt P30542).

Batch lookup, pKA per entry.
1. CCNC(=O)[C@H]1O[C@@H](n2cnc3c(N[C@@H]4CCC[C@H]4OCc4ccccc4)ncnc32)[C@H](O)[C@@H]1O
2. CCNC(=O)[C@H]1O[C@@H](n2cnc3c(N)ncnc32)[C@H](O)[C@@H]1O

1: 4.3; 2: 4.4

----------
Give measured IC50 for each item. Keep answers brief.
- target.system: Adenosine receptor A3 (Homo sapiens, UniProt P0DMS8)
- Sequence (P0DMS8 whole entry): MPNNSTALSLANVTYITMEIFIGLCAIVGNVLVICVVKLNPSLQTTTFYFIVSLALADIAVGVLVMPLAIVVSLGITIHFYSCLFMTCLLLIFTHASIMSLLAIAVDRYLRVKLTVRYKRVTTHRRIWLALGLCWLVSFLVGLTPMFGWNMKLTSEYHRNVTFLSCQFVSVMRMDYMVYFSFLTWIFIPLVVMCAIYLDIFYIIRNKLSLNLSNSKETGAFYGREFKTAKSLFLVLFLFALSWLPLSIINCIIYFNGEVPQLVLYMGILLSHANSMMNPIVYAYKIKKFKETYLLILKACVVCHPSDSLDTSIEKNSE
- assay.method.text: Agonist activity at human Adenosine A3 receptor transfected in CHO-K1 cells assessed as inhibition of forskolin-stimulated cAMP production after 30 mins by multimode microplate reader analysis
Numbers only, in nM.

CCNC(=O)[C@H]1O[C@@H](n2cnc3c(N[C@@H]4CCC[C@H]4O)ncnc32)[C@H](O)[C@@H]1O: 2.29
CCNC(=O)[C@H]1O[C@@H](n2cnc3c(NC45CC6CC(CC(O)(C6)C4)C5)ncnc32)[C@H](O)[C@@H]1O: 79.4
OC[C@H]1O[C@@H](n2cnc3c(N[C@@H]4CCC[C@H]4O)ncnc32)[C@H](O)[C@@H]1O: 27.5

Pending molecule:
Item CCNC(=O)[C@H]1O[C@@H](n2cnc3c(N[C@@H]4CCC[C@H]4OCc4ccccc4)ncnc32)[C@H](O)[C@@H]1O with Adenosine receptor A3 (Homo sapiens, UniProt P0DMS8) - IC50?
269

----------
- target.system: Adenosine receptor A2b (Homo sapiens)
- assay.method.text: Agonist activity at human Adenosine A2B receptor expressed in yeast cells coexpressed with chimeric GPA1/Galphas after 16 hrs by beta-galactosidase reporter gene assay relative to NECA
- Type: cell-based
Calls of active or inactive are those of the source. The calls are words filed in the database; no cut-off is given here.
quantity.name: Emax

Below: 5 compounds and their reported Emax.
OC[C@H]1O[C@@H](n2cnc3c(N[C@@H]4CCC[C@H]4OCc4ccccc4)ncnc32)[C@H](O)[C@@H]1O: inactive
OC[C@H]1O[C@@H](n2cnc3c(NC4CCCC4)nc(Cl)nc32)[C@H](O)[C@@H]1O: 30.6%
CCNC(=O)[C@H]1O[C@@H](n2cnc3c(N[C@@H]4CCC[C@H]4OCc4ccccc4)ncnc32)[C@H](O)[C@@H]1O: 32.2%
OC[C@H]1O[C@@H](n2cnc3c(NC45CC6CC(CC(C6)C4)C5)ncnc32)[C@H](O)[C@@H]1O: inactive
Nc1ncnc2c1ncn2[C@@H]1O[C@H](CO)[C@@H](O)[C@H]1O: 70.4%

Batch lookup, Emax per entry.
1. CCNC(=O)[C@H]1O[C@@H](n2cnc3c(NC45CC6CC(CC(C6)C4)C5)ncnc32)[C@H](O)[C@@H]1O
2. CCNC(=O)[C@H]1O[C@@H](n2cnc3c(N)nc(NCCc4ccc(CCC(=O)O)cc4)nc32)[C@H](O)[C@@H]1O
3. OC[C@H]1O[C@@H](n2cnc3c(N[C@@H]4CCC[C@H]4O)ncnc32)[C@H](O)[C@@H]1O
4. CCNC(=O)[C@H]1O[C@@H](n2cnc3c(N[C@@H]4CCC[C@H]4O)ncnc32)[C@H](O)[C@@H]1O

["inactive", "59.1%", "inactive", "49.2%"]

Batch lookup, Emax per entry.
1. CCNC(=O)[C@H]1O[C@@H](n2cnc3c(NC4C5CC6CC(C5)CC4C6)ncnc32)[C@H](O)[C@@H]1O (stereo partly specified)
2. CCNC(=O)[C@H]1O[C@@H](n2cnc3c(NC45CC6CC(CC(O)(C6)C4)C5)ncnc32)[C@H](O)[C@@H]1O

1: inactive; 2: inactive

Source of measurements: ChEMBL document CHEMBL3769381
